Origin of the recorded values: patent US20060093617A1

Molecular target: HLA-DRB1*0101 (human)
Assay: competition vs 125I-labelled probe peptide, purified HLA-DR
Lab note: anything with IC50 below 300 nM is marked T; values at 300 nM or higher are marked F.

binder: ASQLSAPSLKATCTT (modifications not checked) [… (SEQ ID NO 2111)]
group: F

binder: GVNYATGNLPGCSFS (modifications not checked) [… (SEQ ID NO 2155)]
group: F

binder: RAAVCTRGVAKAVDF (modifications not checked) [… (SEQ ID NO 2199)]
group: F

binder: SKGWRLLAPITAYAQ (modifications not checked) [… (SEQ ID NO 2213)]
group: T

binder: GYKVLVLNPSVAATL (modifications not checked) [… (SEQ ID NO 2157)]
group: T

binder: GHRMAWDMMMNWSPT (modifications not checked) [… (SEQ ID NO 2142)]
group: T

binder: ASCLRKLGVPPLRVW (modifications not checked) [… (SEQ ID NO 2110)]
group: T

binder: PQTFQVAHLHAPTGS (modifications not checked) [… (SEQ ID NO 2192)]
group: T
